FYI, the data here is from PubChem BioAssay (NCI).

- Test system: COLO 205 colon
- test-protocol: NCI-60 one-dose screen, 48 h
- measurement-parameters: 10 µM unless noted
Compounds without any hit were thinned out: in the full panel of roughly 83,000, 20% have a hit. The source made the active and inactive calls. The calls were made as follows: active = growth percent below 10; inactive = the rest.
Outcomes: active, inactive

{"compound": "Cc1ccc(-n2nnc(C3=NCCc4c3[nH]c3ccc(Cl)cc43)c2C)cc1", "assay-target": "COLO 205 colon", "category": "inactive"}
{"compound": "CC1=NN(c2cccc(Cl)c2)C(=O)/C1=C\\c1cn(CC(O)CN2CCCCC2)c2ccccc12 (stereo not given)", "assay-target": "COLO 205 colon", "category": "active"}
{"compound": "COc1ccc(N(C)c2nc(Cl)nc3cnn(C)c23)cc1", "assay-target": "COLO 205 colon", "category": "active"}
{"compound": "CCCCS(=O)(=O)Oc1ccc(-c2nc(C)c(C(=O)OCC)s2)cc1C=O", "assay-target": "COLO 205 colon", "category": "inactive"}
{"compound": "CN(C)S(=O)(=O)n1cnc([C@@H]2[C@@H]3C(=O)OC[C@@H]3C[C@]23N=CN(Cc2ccccc2)C3=O)c1", "assay-target": "COLO 205 colon", "category": "inactive"}

###

- Test system: T-47D breast
- test-protocol: NCI-60 one-dose screen, 48 h
- measurement-parameters: 10 µM unless noted
About 83,000 compounds went through this panel and 20% of them were active in at least one assay; those are over-represented in the sample as a whole. Activity calls are given as the source filed them. How the source made its calls: active means growth percent below 10; inactive means the rest.
Outcomes: y = active, n = inactive

{"molecule": "OCCCCc1nccc2c1[nH]c1ccccc12", "assay-target": "T-47D breast", "category": "n"}
{"molecule": "N#Cc1cnn2c(-c3ccc(Cl)cc3)nc(NCCc3ccccc3)nc12", "assay-target": "T-47D breast", "category": "n"}
{"molecule": "O=C(c1ccccc1)c1ccc(N2C(=O)C3C4c5ccccc5C(/C=C/C(=O)c5ccccn5)(c5ccccc54)C3C2=O)cc1 (stereo not given)", "assay-target": "T-47D breast", "category": "n"}
{"molecule": "C#CC[C@H](N)C(=O)O", "assay-target": "T-47D breast", "category": "n"}
{"molecule": "CC(=O)Nc1ccc2c(c1)Cc1c(F)cccc1-2", "assay-target": "T-47D breast", "category": "n"}
{"molecule": "Cc1[nH]c(-c2nc3ccccc3[nH]2)c(C)c1C(=O)N1CCc2sccc2C1", "assay-target": "T-47D breast", "category": "n"}
{"molecule": "CN(C)c1ccc(-c2cc(-c3ccc(Nc4nc(Nc5ccccc5)nc(Nc5ccc(Cl)cc5)n4)cc3)nc(N)n2)cc1", "assay-target": "T-47D breast", "category": "n"}
{"molecule": "CCNCCNc1cc(-c2ccc(C(F)(F)F)cc2)c(C#N)c2nc3cc(Cl)c(Cl)cc3n12", "assay-target": "T-47D breast", "category": "y"}
{"molecule": "O=[N+]([O-])c1ccccc1C(O)Cc1ccc2ccccc2n1 (stereo not given)", "assay-target": "T-47D breast", "category": "n"}
{"molecule": "CC(=O)C(C(C)=O)c1nc2sc3cc(Cl)ccc3n2c(=N)c1C#N", "assay-target": "T-47D breast", "category": "n"}
{"molecule": "N#C/C(=C\\c1ccc2c(c1)OCO2)n1nnc2ccccc21", "assay-target": "T-47D breast", "category": "n"}
{"molecule": "O=C1c2ccccc2C(=O)c2cc(Cn3cc[n+](Cc4ccc5ccccc5c4)c3)ccc21", "assay-target": "T-47D breast", "category": "n"}
{"molecule": "CCCCCCCC/C=C\\CCCCCCCC(=O)Oc1cccc2cccnc12", "assay-target": "T-47D breast", "category": "n"}
{"molecule": "COc1ccc(-c2cc(-c3ccc(Nc4nc(Nc5ccccc5)nc(Nc5ccc(Cl)cc5)n4)cc3)nc(N)c2C#N)cc1", "assay-target": "T-47D breast", "category": "y"}
{"molecule": "OC(CBr)c1ccnc2ccccc12 (stereo not given)", "assay-target": "T-47D breast", "category": "n"}
{"molecule": "NC(N)=N/N=C/c1ccc(Br)cc1", "assay-target": "T-47D breast", "category": "y"}
{"molecule": "CN1C(=O)CCC(N2C(=O)c3cccc(NCCOCCOCCNC(=O)c4cc5c(o4)C(=O)c4ccccc4C5=O)c3C2=O)C1=O (stereo not given)", "assay-target": "T-47D breast", "category": "n"}
{"molecule": "O=C1N(c2ccccc2)C(=S)N[C@]12[C@H](c1ccccc1)C1CCCN1[C@]21C(=O)NC2C=CC(Cl)=C[C@H]21 (stereo not given in full)", "assay-target": "T-47D breast", "category": "n"}
{"molecule": "Cc1ccc2c(n1)C(=O)C(Oc1ccc(F)cc1)=CC2=O", "assay-target": "T-47D breast", "category": "n"}
{"molecule": "COc1cccc(-c2cnco2)c1OCc1c(C)c(COc2c(OC)cccc2-c2cnco2)c(C)c(COc2c(OC)cccc2-c2cnco2)c1C", "assay-target": "T-47D breast", "category": "n"}

###

- System: EKVX NSCLC
- test-protocol: NCI-60 one-dose screen, 48 h
- measurement-parameters: 10 µM unless noted
- Protocol: Growth inhibition of the EKVX human Non-Small Cell Lung tumor cell line is measured as a screen for anti-cancer activity. Cells are grown in 96 well plates and exposed to the test compound for 48 hours. Compounds are tested at a single concentration, which is 10^-5 M for most compounds. The reported endpoint is percent growth (GI% or GIPRCNT), where numbers from 0 - 100% represent growth inhibition, and numbers from -100% - 0 represent cell death. […]
Compounds without any hit were thinned out: in the full panel of roughly 83,000, 20% have a hit. The source made the active and inactive calls. Rule for the calls: active = growth percent below 10; inactive = the rest.
Outcomes: yes (active), no (inactive)

{"input-smiles": "N#C/C(=C\\c1ccc2c(c1)OCO2)n1nnc2ccccc21", "category": "no"}
{"input-smiles": "Cl.Fc1c[c-]c(-c2ccccn2)c(F)c1.[Pt].c1ccc([PH+](C[PH+](c2ccccc2)c2ccccc2)c2ccccc2)cc1", "category": "yes"}
{"input-smiles": "Cc1ccc(NC(=O)C(Cl)Cl)cc1", "category": "no"}
{"input-smiles": "CC(=[N-])N1CCC[C@@H](Nc2c3ccccc3nc3ccccc23)C1.[Cl][Pt].[NH-]CCC[NH-]", "category": "no"}
{"input-smiles": "COc1ccc(/C=N/NC(=O)Cn2c(-c3ccc(S(C)(=O)=O)cc3)nc3cc(Cl)ccc32)cc1", "category": "no"}

###

- System: PC-3 prostate
- test-protocol: NCI-60 one-dose screen, 48 h (100 = growth as untreated, 0 = no growth, -100 = all killed)
- measurement-parameters: 10 µM unless noted
Compounds without any hit were thinned out: in the full panel of roughly 83,000, 20% have a hit.
Simple rule here: growth less than 70% is Y, otherwise N.

{"compound": "CN(C)c1ccc(/C=N/NC(=O)COc2cc(=O)n(C)c3ccccc23)cc1", "assay-target": "PC-3 prostate", "category": "N"}
{"compound": "O=c1oc2ccc(Cl)cc2cc1-c1cs/c(=N/N=C\\c2ccc(Cl)cc2)n1/N=C/c1ccc(Cl)cc1", "assay-target": "PC-3 prostate", "category": "N"}
{"compound": "O=[N+]([O-])c1ccc(-c2cc3c(Nc4ccc(OCc5cccc(Cl)c5)c(Cl)c4)ncnc3s2)cc1", "assay-target": "PC-3 prostate", "category": "Y"}
{"compound": "Cc1[nH]c(-c2nc3ccccc3[nH]2)c(C)c1C(=O)N1CCOCC1", "assay-target": "PC-3 prostate", "category": "N"}
{"compound": "NC(=S)c1csc(CCNC(=O)c2ccccc2)n1", "assay-target": "PC-3 prostate", "category": "N"}
{"compound": "COC1=CC(c2ccc[nH]2)=N/C1=C\\c1[nH]c(C)c(C(=O)OCCn2cc(CCC[C@@H]3Cc4cc(O)ccc4C4CC[C@]5(C)[C@@H](O)CC[C@H]5C43)nn2)c1C (some centres undefined)", "assay-target": "PC-3 prostate", "category": "Y"}
{"compound": "O=[N+]([O-])c1ccc(-c2cc3c(Nc4ccc(Cl)c(C(F)(F)F)c4)ncnc3s2)cc1", "assay-target": "PC-3 prostate", "category": "Y"}
{"compound": "O=C1Nc2ccccc2/C1=N/N=C/c1c[nH]c2ccccc12", "assay-target": "PC-3 prostate", "category": "N"}

###

- System: U251 CNS
- test-protocol: NCI-60 one-dose screen, 48 h (100 = growth as untreated, 0 = no growth, -100 = all killed)
- measurement-parameters: 10 µM unless noted
About 83,000 compounds went through this panel and 20% of them were active in at least one assay; those are over-represented in the sample as a whole. The source made the active and inactive calls. How the source made its calls: active means growth percent below 10; inactive means the rest.
The following compounds are listed with their measured growth values.

{"compound": "CN(C)CCN1C(=O)c2cccc3c(-c4ccc(-c5nc6c7ccccc7c7ccccc7c6[nH]5)cc4)ccc(c23)C1=O", "growth": "95.5% (inactive)"}
{"compound": "COc1ccc(Cn2cnc3cc(C(=O)Nc4cccc5ccccc45)ccc32)c(OC)c1", "growth": "17.5% [30 µM] (inactive)"}
{"compound": "N#Cc1cccc(-c2nc3ccccn3c2NCCN2CCOCC2)c1", "growth": "98.2% (inactive)"}
{"compound": "CC(=O)C(C(C)=O)c1nc2sc3cc(Cl)ccc3n2c(=N)c1C#N", "growth": "82.3% (inactive)"}
{"compound": "CN(C)c1ccc(/C=C2\\C=C(c3ccccc3)N(CCc3ccccc3)C2=O)cc1", "growth": "33.2% (inactive)"}
{"compound": "CC(=O)c1ccc2c(c1)CCN2", "growth": "97.1% (inactive)"}
{"compound": "CCN(CC)CCCNC(=O)c1ccc(N)cc1", "growth": "101% (inactive)"}
{"compound": "COc1cc(C(=O)/C=C/c2c(-c3ccc(F)cc3)nc3ncccn23)cc(OC)c1OC", "growth": "48.2% (inactive)"}
{"compound": "O=C(/C=C/c1ccccc1)c1ccc2ccccc2c1", "growth": "93.2% (inactive)"}
{"compound": "CCCCOC(=O)c1ccc(NC(=O)C(C)N2CCOCC2)cc1 (stereo unspecified)", "growth": "93.2% (inactive)"}
{"compound": "Cc1ccc2c(n1)C(=O)C(Oc1ccc(F)cc1)=CC2=O", "growth": "95.3% (inactive)"}
